FYI, the data here is from PubChem BioAssay AID2060898.

- Tested on: 616215-338-R-J1-PDC complex spheroid viability
- Assay Details: Anticancer human tumor 616215-338-R-J1-PDC patient-derived colon adenocarcinoma cell line growth inhibition [RAS]
- Particulars: curve of first compound; second compound 0.00949 µM
pIC50: −log10 of the molar value.
Given measured pIC50, output 1.0 if it is greater than or equal to 8 and 0.0 if not.

Here are 2 molecules together with their reported answers.
INSERT INTO measurements (molecule, experimental_system, group_label) VALUES
  ('C=CC(=O)N1CCN(c2nc(OCC3CCCN3C)nc3c(F)c(-c4nc(N)cc(C)c4C(F)(F)F)c(Cl)cc23)C(C)C1 (centres undefined) + CCn1c(-c2cc(N3CCN(C)CC3)cnc2C(C)OC)c2c3cc(ccc31)-c1csc(n1)CC(NC(=O)C1CC1C)C(=O)N1CCCC(N1)C(=O)OCC(C)(C)C2', '616215-338-R-J1-PDC complex spheroid viability', 0.0),
  ('CCc1c2c(nc3ccc(O)cc13)-c1cc3c(c(=O)n1C2)COC(=O)[C@]3(O)CC + CCn1c(-c2cc(N3CCN(C)CC3)cnc2C(C)OC)c2c3cc(ccc31)-c1csc(n1)CC(NC(=O)C1CC1C)C(=O)N1CCCC(N1)C(=O)OCC(C)(C)C2', '616215-338-R-J1-PDC complex spheroid viability', 1.0);

[Q] Hi, just wondering whether CC(C)n1nc(-c2ccc3oc(N)nc3c2)c2c(N)ncnc21 + CCn1c(-c2cc(N3CCN(C)CC3)cnc2C(C)OC)c2c3cc(ccc31)-c1csc(n1)CC(NC(=O)C1CC1C)C(=O)N1CCCC(N1)C(=O)OCC(C)(C)C2 shows pIC50 of 8 or higher.
[A] 0.0

[Q] Hi, just wondering whether O=C(c1ccc(F)c(F)c1Nc1ccc(I)cc1F)N1CC(O)([C@@H]2CCCCN2)C1 + CCn1c(-c2cccnc2C(C)OC)c2c3cc(ccc31)N1CCOC(CC(NC(=O)C(C(C)C)N(C)C(=O)C3(F)CCN(C(=O)C#CC(C)(C)N(C)C)CC3)C(=O)N3CCCC(N3)C(=O)OCC(C)(C)C2)C1 shows pIC50 of 8 or higher.
[A] 0.0

[Q] Hi, just wondering whether CC1(O)CCCC1n1c(=O)c(C(F)F)cc2cnc(NC3CCN(S(C)(=O)=O)CC3)nc21 (centres undefined) + CCn1c(-c2cc(N3CCN(C)CC3)cnc2C(C)OC)c2c3cc(ccc31)-c1csc(n1)CC(NC(=O)C1CC1C)C(=O)N1CCCC(N1)C(=O)OCC(C)(C)C2 shows pIC50 of 8 or higher.
[A] 0.0

[Q] Hi, just wondering whether C=CC(=O)N1CCN(c2nc(OCC3CCCN3C)nc3c(F)c(-c4nc(N)cc(C)c4C(F)(F)F)c(Cl)cc23)C(C)C1 (centres undefined) + CCn1c(-c2cccnc2C(C)OC)c2c3cc(ccc31)N1CCOC(CC(NC(=O)C(C(C)C)N(C)C(=O)C3(F)CCN(C(=O)C#CC(C)(C)N(C)C)CC3)C(=O)N3CCCC(N3)C(=O)OCC(C)(C)C2)C1 shows pIC50 of 8 or higher.
[A] 0.0

---

- System: 616215-338-R-J1-PDC complex spheroid viability
- Assay Details: Anticancer human tumor 616215-338-R-J1-PDC cell line growth inhibition [RAS];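 further: spheroids exposed to agents for seven days before viability readout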;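 on viability, T/C: 100% = DMSO vehicle control viability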
- Particulars: second compound 0.0316 µM; first compound 0.01 µM; stronger effect = lower value
Quantity: viability, T/C (%)
Quick note: give the figure in %, leave out the unit.

Before answering, review these 3 worked examples.
INSERT INTO measurements (compound, assay_value) VALUES
  ('Nc1ccn(C2OC(CO)C(O)C2(F)F)c(=O)n1 (stereo not given) + C=CC(=O)N1CCN(c2nc(OCC3CCCN3C)nc3c(F)c(-c4nc(N)cc(C)c4C(F)(F)F)c(Cl)cc23)C(C)C1', 65.1),
  ('CCN1CCN(Cc2ccc(Nc3ncc(F)c(-c4cc(F)c5nc(C)n(C(C)C)c5c4)n3)nc2)CC1 + C#Cc1c(F)ccc2cc(O)cc(-c3ncc4c(N5CC6CCC(C5)N6)nc(OCC56CCCN5CC(F)C6)nc4c3F)c12', 117),
  ('CC(C)n1nc(-c2ccc3oc(N)nc3c2)c2c(N)ncnc21 + C#Cc1c(F)ccc2cc(O)cc(-c3ncc4c(N5CC6CCC(C5)N6)nc(OCC56CCCN5CC(F)C6)nc4c3F)c12', 114);

[Q] Please provide the recorded viability, T/C for O=C(c1ccc(F)c(F)c1Nc1ccc(I)cc1F)N1CC(O)([C@@H]2CCCCN2)C1 + C=CC(=O)N1CCN(c2nc(OCC3CCCN3C)nc3c(F)c(-c4nc(N)cc(C)c4C(F)(F)F)c(Cl)cc23)C(C)C1 , tested on 616215-338-R-J1-PDC complex spheroid viability.
[A] 115

[Q] Please provide the recorded viability, T/C for Nc1ccn(C2OC(CO)C(O)C2(F)F)c(=O)n1 (stereo not given) + C#Cc1c(F)ccc2cc(O)cc(-c3ncc4c(N5CC6CCC(C5)N6)nc(OCC56CCCN5CC(F)C6)nc4c3F)c12 , tested on 616215-338-R-J1-PDC complex spheroid viability.
[A] 44.9

---

Catalogue of IC50 readings, one per entry.
- Test system: 616215-338-R-J1-PDC complex spheroid viability
- Assay Details: Anticancer human tumor 616215-338-R-J1-PDC cell line growth inhibition [RAS];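 further: spheroids exposed to agents for seven days before viability readout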
- Particulars: curve of first compound; second compound 0.00949 µM
Quick note: give the figure in nM, leave out the unit.

INSERT INTO measurements (compound, experimental_system, assay_value) VALUES
  ('Nc1ccn(C2OC(CO)C(O)C2(F)F)c(=O)n1 (centres undefined) + CCn1c(-c2cccnc2C(C)OC)c2c3cc(ccc31)N1CCOC(CC(NC(=O)C(C(C)C)N(C)C(=O)C3(F)CCN(C(=O)C#CC(C)(C)N(C)C)CC3)C(=O)N3CCCC(N3)C(=O)OCC(C)(C)C2)C1', '616215-338-R-J1-PDC complex spheroid viability', 14.6);

[Q] Query: IC50; subject: O=C(c1ccc(F)c(F)c1Nc1ccc(I)cc1F)N1CC(O)([C@@H]2CCCCN2)C1 + CCn1c(-c2cc(N3CCN(C)CC3)cnc2C(C)OC)c2c3cc(ccc31)-c1csc(n1)CC(NC(=O)C1CC1C)C(=O)N1CCCC(N1)C(=O)OCC(C)(C)C2
[A] 6.67

---

- Test system: 616215-338-R-J1-PDC complex spheroid viability
- Assay Details: Anticancer human tumor 616215-338-R-J1-PDC cell line growth inhibition [RAS];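 further: spheroids exposed to agents for seven days before viability readout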
- Particulars: curve of first compound; second compound 0.3 µM
Quantity: IC50

Before answering, review these 2 worked examples.
INSERT INTO measurements (compound, quantity, assay_value) VALUES
  ('CC(C)NCC(C(=O)N1CCN(c2ncnc3c2C(C)CC3O)CC1)c1ccc(Cl)cc1 (stereo not drawn) + CCn1c(-c2cccnc2C(C)OC)c2c3cc(ccc31)N1CCOC(CC(NC(=O)C(C(C)C)N(C)C(=O)C3(F)CCN(C(=O)C#CC(C)(C)N(C)C)CC3)C(=O)N3CCCC(N3)C(=O)OCC(C)(C)C2)C1', 'IC50', '3 µM'),
  ('CC(=O)OC12COC1CC(O)C1(C)C(=O)C(O)C3=C(C)C(OC(=O)C(O)C(NC(=O)OC(C)(C)C)c4ccccc4)CC(O)(C(OC(=O)c4ccccc4)C21)C3(C)C (stereo not drawn) + CCn1c(-c2cccnc2C(C)OC)c2c3cc(ccc31)N1CCOC(CC(NC(=O)C(C(C)C)N(C)C(=O)C3(F)CCN(C(=O)C#CC(C)(C)N(C)C)CC3)C(=O)N3CCCC(N3)C(=O)OCC(C)(C)C2)C1', 'IC50', '< 0.0316 µM');

Okay, next one:
[Q] Query: IC50; subject: C=CC(=O)N1CCN(c2nc(OCC3CCCN3C)nc3c(F)c(-c4nc(N)cc(C)c4C(F)(F)F)c(Cl)cc23)C(C)C1 (stereo not drawn) + CCn1c(-c2cccnc2C(C)OC)c2c3cc(ccc31)N1CCOC(CC(NC(=O)C(C(C)C)N(C)C(=O)C3(F)CCN(C(=O)C#CC(C)(C)N(C)C)CC3)C(=O)N3CCCC(N3)C(=O)OCC(C)(C)C2)C1
[A] > 1 µM

---

Catalogue of pIC50 readings, one per entry.
- Tested on: 616215-338-R-J1-PDC complex spheroid viability
- Assay Details: Anticancer human tumor 616215-338-R-J1-PDC cell line growth inhibition [RAS];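 further: spheroids exposed to agents for seven days before viability readout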
- Particulars: curve of first compound; second compound 0.0949 µM
pIC50: −log10 of the molar value.

Before answering, review these 5 worked examples.
INSERT INTO results (compound, assay_value) VALUES
  ('CC(=O)OC12COC1CC(O)C1(C)C(=O)C(O)C3=C(C)C(OC(=O)C(O)C(NC(=O)OC(C)(C)C)c4ccccc4)CC(O)(C(OC(=O)c4ccccc4)C21)C3(C)C (configuration not stated) + CCn1c(-c2cc(N3CCN(C)CC3)cnc2C(C)OC)c2c3cc(ccc31)-c1csc(n1)CC(NC(=O)C1CC1C)C(=O)N1CCCC(N1)C(=O)OCC(C)(C)C2', '> 7.50'),
  ('CCN1CCN(Cc2ccc(Nc3ncc(F)c(-c4cc(F)c5nc(C)n(C(C)C)c5c4)n3)nc2)CC1 + CCn1c(-c2cccnc2C(C)OC)c2c3cc(ccc31)N1CCOC(CC(NC(=O)C(C(C)C)N(C)C(=O)C3(F)CCN(C(=O)C#CC(C)(C)N(C)C)CC3)C(=O)N3CCCC(N3)C(=O)OCC(C)(C)C2)C1', '< 6.00'),
  ('C[C@@H](NC(=O)c1ncnc(N)c1Cl)c1ncc(C(=O)Nc2cc(C(F)(F)F)c(Cl)cn2)s1 + CCn1c(-c2cc(N3CCN(C)CC3)cnc2C(C)OC)c2c3cc(ccc31)-c1csc(n1)CC(NC(=O)C1CC1C)C(=O)N1CCCC(N1)C(=O)OCC(C)(C)C2', '> 7.50'),
  ('C=CC(=O)N1CCN(c2nc(OCC3CCCN3C)nc3c(F)c(-c4nc(N)cc(C)c4C(F)(F)F)c(Cl)cc23)C(C)C1 (configuration not stated) + CCn1c(-c2cccnc2C(C)OC)c2c3cc(ccc31)N1CCOC(CC(NC(=O)C(C(C)C)N(C)C(=O)C3(F)CCN(C(=O)C#CC(C)(C)N(C)C)CC3)C(=O)N3CCCC(N3)C(=O)OCC(C)(C)C2)C1', '< 6.00'),
  ('CC(=O)OC12COC1CC(O)C1(C)C(=O)C(O)C3=C(C)C(OC(=O)C(O)C(NC(=O)OC(C)(C)C)c4ccccc4)CC(O)(C(OC(=O)c4ccccc4)C21)C3(C)C (configuration not stated) + CCn1c(-c2cccnc2C(C)OC)c2c3cc(ccc31)N1CCOC(CC(NC(=O)C(C(C)C)N(C)C(=O)C3(F)CCN(C(=O)C#CC(C)(C)N(C)C)CC3)C(=O)N3CCCC(N3)C(=O)OCC(C)(C)C2)C1', '> 7.50');

[Q] Please provide the recorded pIC50 for CCN1CCN(Cc2ccc(Nc3ncc(F)c(-c4cc(F)c5nc(C)n(C(C)C)c5c4)n3)nc2)CC1 + CCn1c(-c2cc(N3CCN(C)CC3)cnc2C(C)OC)c2c3cc(ccc31)-c1csc(n1)CC(NC(=O)C1CC1C)C(=O)N1CCCC(N1)C(=O)OCC(C)(C)C2 , tested on 616215-338-R-J1-PDC complex spheroid viability.
[A] > 8.50

[Q] Please provide the recorded pIC50 for CC(Nc1ccc2c(c1)OCCn1cc(N3C(=O)OCC3C(F)F)nc1-2)C(N)=O (configuration not stated) + CCn1c(-c2cc(N3CCN(C)CC3)cnc2C(C)OC)c2c3cc(ccc31)-c1csc(n1)CC(NC(=O)C1CC1C)C(=O)N1CCCC(N1)C(=O)OCC(C)(C)C2 , tested on 616215-338-R-J1-PDC complex spheroid viability.
[A] > 7.50
